test: gradient 5% acetonitrile 3 min, to 50% in 2 min, to 85% in 15 min, held 3 min, 100 µL/min; settings: column: Zorbax Extend-C18 2.1 x 50 mm; eluents: water / acetonitrile, 0.1% formic acid
Would you please tag the item Yes when its RP-LC retention time is 800 s or above, and No when it is below?

Would you please look over these solved cases?
COCCn1cc(CCNC(=O)Nc2ccccc2C)c2cccnc21: No
COc1ccc(S(=O)(=O)N2CCCC(C(=O)Nc3ccc4c(c3)OCCO4)C2)cc1C (stereo unspecified): Yes
Cc1noc(-c2cc(=O)n(CC(=O)Nc3ccc(N(C)C)cc3)c3ccccc23)n1: No

Prompt line: Confirm if RP-LC retention time reported for the compound CCN(C(=O)CN1C(=O)NC(c2ccc(Cl)cc2)C2=C1COC2=O)c1ccccc1 (stereo unspecified) is 800 s or above.
Response line: Yes

Prompt line: Confirm if RP-LC retention time reported for the compound Cc1ccc(CNC(=O)Cn2nc3c(Oc4cc(C)cc(C)c4)nccn3c2=O)cc1 is 800 s or above.
Response line: Yes

Prompt line: Confirm if RP-LC retention time reported for the compound O=C(N1CCC(c2nnc(-c3ccc(F)cc3)o2)CC1)C1(c2ccccc2)CCOCC1 is 800 s or above.
Response line: No

Prompt line: Confirm if RP-LC retention time reported for the compound COCCc1nncn1C1CCN(S(=O)(=O)c2ccccc2C(F)(F)F)CC1 is 800 s or above.
Response line: No

Prompt line: Confirm if RP-LC retention time reported for the compound COc1ccc2nc(C(=O)N3CCN(c4ccc(Cl)cc4)CC3)cn2n1 is 800 s or above.
Response line: Yes

Prompt line: Confirm if RP-LC retention time reported for the compound Cc1nc2ccccn2c(=O)c1NC(=O)Nc1cccs1 is 800 s or above.
Response line: No

----------
assay: gradient 5% acetonitrile 3 min, to 50% in 2 min, to 85% in 15 min, held 3 min, 100 µL/min; conditions: column: Zorbax Extend-C18 2.1 x 50 mm; eluents: water / acetonitrile, 0.1% formic acid
The reader will find reported RP-LC retention time values listed item by item below.
Form entry: value (s) — number only.

Record excerpt, results attached:
CCOc1cc(=O)n2c(c1C(=O)Nc1cccc(Br)c1)CCCC2: 802
CSc1nc(NC(C)C)c(C#N)c(-c2ccccc2)n1: 1190
CCn1cc(C)c(C(=O)O)c1CC(=O)N1CCCCCC1: 720
CC1CCN(C(=O)c2cc(S(=O)(=O)N3CCCC(C(=O)Nc4nccs4)C3)c[nH]2)CC1 (configuration not stated): 756

Lab note: measured RP-LC retention time of Cc1ccccc1NC(=O)Cn1c(=O)n(-c2ccccc2)c(=O)c2c1cc(C)n2C was 806

Lab note: measured RP-LC retention time of Cc1ccc(CNC(=O)Cc2nnc(-c3ccc4ncccc4c3)o2)cc1 was 832

Lab note: measured RP-LC retention time of Cc1cc(NC(=O)C2CCN(S(=O)(=O)c3ccc(F)cc3)CC2)n(C)n1 was 732

----------
assay: gradient 5% acetonitrile 3 min, to 50% in 2 min, to 85% in 15 min, held 3 min, 100 µL/min; conditions: column: Zorbax Extend-C18 2.1 x 50 mm; eluents: water / acetonitrile, 0.1% formic acid
Quick rule for you: RP-LC retention time under 800 s gets met, anything else gets not met.

Would you please look over these solved cases?
Cc1cc(N2CCN(c3ccccn3)CC2)n2nc(C(F)(F)F)c(-c3ccccc3Cl)c2n1: not met
O=C1Nc2cc(C(=O)N3CCCCC3)ccc2N2CCCCC12 (configuration not stated): met
CNC(=O)c1ccc(-c2nc3cc(NS(=O)(=O)c4ccc(Cl)s4)ccc3n2C)cc1: met
COc1ccc(CN2C(=O)COC[C@H]2C(=O)NCC2CC2)c(OC)c1: met

Read the next record carefully.
Prompt line: State whether 800 s exceeds RP-LC retention time recorded for Cc1oc(-c2[nH]ncc2C(=O)N(C)C)cc1S(=O)(=O)NCc1ccc(Cl)cc1 .
Response line: met
